Each entry below lists one item and its recorded NanoBRET Fold Response value.
- tgt: GRPR (Homo sapiens)
- Construct: purchased Promega (in-house HiBiT-GPCR construct library, NanoBRET)
- Sequence (P30550 whole entry): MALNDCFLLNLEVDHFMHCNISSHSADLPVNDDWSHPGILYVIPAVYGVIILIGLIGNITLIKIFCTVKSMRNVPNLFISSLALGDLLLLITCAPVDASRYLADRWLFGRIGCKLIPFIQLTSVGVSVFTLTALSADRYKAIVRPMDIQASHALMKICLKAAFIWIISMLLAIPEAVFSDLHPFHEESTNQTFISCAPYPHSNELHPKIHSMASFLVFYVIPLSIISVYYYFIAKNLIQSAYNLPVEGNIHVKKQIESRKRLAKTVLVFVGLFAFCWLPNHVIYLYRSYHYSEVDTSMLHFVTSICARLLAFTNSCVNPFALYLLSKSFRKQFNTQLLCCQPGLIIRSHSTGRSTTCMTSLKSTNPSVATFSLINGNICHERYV
- assay.explanation: NanoBRET screen HiBiT-GRPR in HEK293
- Format: binding
- run.parameters: GRPR; tracer 1μM
Just the number, please, no unit after it.

Below, each entry is followed by its recorded NanoBRET Fold Response result.
compound	measurement.kind	reported.measurement
COc1ccccc1N1CCN(CCCCN2C(=O)c3ccc(CNC(=O)CCOCCNC(=O)c4ccc(CNC(=O)CCc5ccc6n5[B-](F)(F)[N+]5=C(c7ccc[nH]7)C=CC5=C6)cc4)cc3C2=O)CC1 [NAN-190-3-NB590]	NanoBRET Fold Response	0.94
N#CN=C(NCCCOc1cccc(CN2CCCCC2)c1)NCCNC(=O)CCOCCOCCOCCOCCNC(=O)CCc1ccc2n1[B-](F)(F)[N+]1=C(c3ccc[nH]3)C=CC1=C2 [Aminopotentidine-2-NB590]	NanoBRET Fold Response	0.98
COc1ccccc1N1CCN(CCCCN2C(=O)c3ccc(CNC(=O)CCOCCOCCOCCOCCNC(=O)CCc4ccc5n4[B-](F)(F)[N+]4=C(c6ccc[nH]6)C=CC4=C5)cc3C2=O)CC1 [NAN-190-2-NB590]	NanoBRET Fold Response	0.92
Cc1cc2c(s1)Nc1ccccc1N=C2N1CCN(CCCNC(=O)CCOCCOCCOCCOCCNC(=O)CCc2ccc3n2[B-](F)(F)[N+]2=C(c4ccc[nH]4)C=CC2=C3)CC1 [Olanzapine-a-2-NB590]	NanoBRET Fold Response	0.93

Data request: Which NanoBRET Fold Response is listed for CCCn1c(=O)c2[nH]c(-c3ccc(OCC(=O)NCCNC(=O)CCOCCNC(=O)c4ccc(CNC(=O)CCc5ccc6n5[B-](F)(F)[N+]5=C(c7ccc[nH]7)C=CC5=C6)cc4)cc3)nc2n(CCC)c1=O [XAC-3-NB590] ?
Data returned: 1.01

Data request: Reported NanoBRET Fold Response, compound CC(C)N(CC[C@H](c1ccccc1)c1cc(CCNC(=O)CCOCCOCCOCCOCCNC(=O)CCc2ccc3n2[B-](F)(F)[N+]2=C(c4ccc[nH]4)C=CC2=C3)ccc1O)C(C)C [Tolterodine-2-NB590] : ____
Data returned: 0.91

Data request: Which NanoBRET Fold Response value belongs to Cc1nc2n(c(=O)c1CCN1CCC(c3noc4cc(F)ccc34)CC1)CCCC2OC(=O)NCCOCCOCCOCCOCCNC(=O)CCc1ccc2n1[B-](F)(F)[N+]1=C(c3ccc[nH]3)C=CC1=C2 (centres unmarked) [Risperidone-2-NB590] ?
Data returned: 0.91

Data request: What value of NanoBRET Fold Response has been reported for the following compound? O=C(CCc1ccc2n1[B-](F)(F)[N+]1=C(c3ccc[nH]3)C=CC1=C2)NCc1ccc(C(=O)NCCOCCC(=O)N[C@@H]2CC[C@@]3(O)[C@H]4Cc5ccc(O)c6c5[C@@]3(CCN4CC3CC3)[C@H]2O6)cc1 [Naltrexone-3-NB590]
Data returned: 0.92

Data request: May I ask what NanoBRET Fold Response has been recorded for O=C(CCc1ccc2n1[B-](F)(F)[N+]1=C(c3ccc[nH]3)C=CC1=C2)NCCOCCOCCNC(=O)OCCOCCN1CCN(C2=Nc3ccccc3Sc3ccccc32)CC1 [Quetiapine-a-2-NB590] ?
Data returned: 0.84

Data request: May I ask what NanoBRET Fold Response has been recorded for CC(C)N(CC[C@H](c1ccccc1)c1cc(CCNC(=O)c2ccc(CNC(=O)CCc3ccc4n3[B-](F)(F)[N+]3=C(c5ccc[nH]5)C=CC3=C4)cc2)ccc1O)C(C)C [Tolterodine-BZ-NB590] ?
Data returned: 0.99

Data request: NanoBRET Fold Response for O=C(CCOCCOCCOCCOCCNC(=O)CCc1ccc2n1[B-](F)(F)[N+]1=C(c3ccc[nH]3)C=CC1=C2)NCCCN1CCN(C2=Nc3ccccc3Oc3ccc(Cl)cc32)CC1 [Loxapine-a-2-NB590] ?
Data returned: 1.09

----------
As shown below, each of these compounds has a reported NanoBRET Fold Response value.
- tgt: HTR2C (Homo sapiens, UniProt P28335)
- Construct: purchased Promega (in-house HiBiT-GPCR construct library, NanoBRET)
- Sequence (P28335 33-458): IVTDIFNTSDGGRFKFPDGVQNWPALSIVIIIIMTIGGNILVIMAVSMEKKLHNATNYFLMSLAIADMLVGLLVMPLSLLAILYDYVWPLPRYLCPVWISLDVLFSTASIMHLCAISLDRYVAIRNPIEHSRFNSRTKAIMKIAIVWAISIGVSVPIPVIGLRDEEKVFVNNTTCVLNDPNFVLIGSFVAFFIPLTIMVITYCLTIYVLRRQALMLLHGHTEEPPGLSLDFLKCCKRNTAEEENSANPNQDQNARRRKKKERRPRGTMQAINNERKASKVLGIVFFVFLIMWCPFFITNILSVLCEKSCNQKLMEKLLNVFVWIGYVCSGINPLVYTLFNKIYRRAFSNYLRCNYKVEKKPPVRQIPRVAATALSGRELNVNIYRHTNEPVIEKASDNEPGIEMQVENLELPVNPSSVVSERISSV
- assay.explanation: NanoBRET screen HiBiT-HTR2C in HEK293
- Format: binding
- run.parameters: HTR2C; tracer 1μM
// print number alone

Worked set:
record.smiles	NanoBRET Fold Response
CC(C)N(CC[C@H](c1ccccc1)c1cc(CCNC(=O)CCOCCOCCOCCOCCNC(=O)CCc2ccc3n2[B-](F)(F)[N+]2=C(c4ccc[nH]4)C=CC2=C3)ccc1O)C(C)C	1.01
CC(C)N(CC[C@H](c1ccccc1)c1cc(CCNC(=O)c2ccc(CNC(=O)CCc3ccc4n3[B-](F)(F)[N+]3=C(c5ccc[nH]5)C=CC3=C4)cc2)ccc1O)C(C)C	1.55

Data request: What measured NanoBRET Fold Response goes with Cc1cc2c(s1)Nc1ccccc1N=C2N1CCN(CCCNC(=O)CCOCCOCCOCCOCCNC(=O)CCc2ccc3n2[B-](F)(F)[N+]2=C(c4ccc[nH]4)C=CC2=C3)CC1 ?
Data returned: 1.22

----------
- tgt: CHRM4 (Homo sapiens)
- Construct: purchased Promega (in-house HiBiT-GPCR construct library, NanoBRET)
- Sequence (P08173 whole entry): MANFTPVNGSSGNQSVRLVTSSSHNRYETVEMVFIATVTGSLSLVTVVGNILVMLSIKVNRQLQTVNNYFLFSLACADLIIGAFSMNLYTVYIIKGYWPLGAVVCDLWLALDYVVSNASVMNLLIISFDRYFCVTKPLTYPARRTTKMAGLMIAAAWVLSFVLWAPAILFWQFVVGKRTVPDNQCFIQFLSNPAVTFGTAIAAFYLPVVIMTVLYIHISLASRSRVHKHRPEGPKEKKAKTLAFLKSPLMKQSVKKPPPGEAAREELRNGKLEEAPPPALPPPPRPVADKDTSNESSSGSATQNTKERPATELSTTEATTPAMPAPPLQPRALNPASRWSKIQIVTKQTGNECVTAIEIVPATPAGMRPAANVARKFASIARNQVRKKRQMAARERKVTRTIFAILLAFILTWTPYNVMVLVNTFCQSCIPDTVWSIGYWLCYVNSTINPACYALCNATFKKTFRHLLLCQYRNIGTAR
- assay.explanation: NanoBRET screen HiBiT-CHRM4 in HEK293
- Type: binding
- run.parameters: CHRM4; tracer 0.1μM
As shown below, each of these compounds has a reported NanoBRET Fold Response value.
Just the number.

compound	tgt	NanoBRET Fold Response
CC(C)N(CC[C@H](c1ccccc1)c1cc(CCNC(=O)c2ccc(CNC(=O)CCc3ccc4n3[B-](F)(F)[N+]3=C(c5ccc[nH]5)C=CC3=C4)cc2)ccc1O)C(C)C [Tolterodine-BZ-NB590]	CHRM4 (Homo sapiens)	3.69
COc1ccccc1N1CCN(CCCCN2C(=O)c3ccc(CNC(=O)CCOCCNC(=O)c4ccc(CNC(=O)CCc5ccc6n5[B-](F)(F)[N+]5=C(c7ccc[nH]7)C=CC5=C6)cc4)cc3C2=O)CC1 [NAN-190-3-NB590]	CHRM4 (Homo sapiens)	1.30
O=C(CCc1ccc2n1[B-](F)(F)[N+]1=C(c3ccc[nH]3)C=CC1=C2)NCc1ccc(C(=O)NCCOCCC(=O)N[C@@H]2CC[C@@]3(O)[C@H]4Cc5ccc(O)c6c5[C@@]3(CCN4CC3CC3)[C@H]2O6)cc1 [Naltrexone-3-NB590]	CHRM4 (Homo sapiens)	0.66
O=C(CCOCCOCCOCCOCCNC(=O)CCc1ccc2n1[B-](F)(F)[N+]1=C(c3ccc[nH]3)C=CC1=C2)NCCCN1CCN(C2=Nc3ccccc3Oc3ccc(Cl)cc32)CC1 [Loxapine-a-2-NB590]	CHRM4 (Homo sapiens)	1.11

Data request: Field request: NanoBRET Fold Response | item: O=C(CCc1ccc2n1[B-](F)(F)[N+]1=C(c3ccc[nH]3)C=CC1=C2)NCCOCCOCCNC(=O)OCCOCCN1CCN(C2=Nc3ccccc3Sc3ccccc32)CC1 [Quetiapine-a-2-NB590]
Data returned: 1.65

----------
- tgt: HCRTR1 (Homo sapiens, UniProt O43613)
- Construct: purchased Promega (in-house HiBiT-GPCR construct library, NanoBRET)
- Sequence (O43613 1-425): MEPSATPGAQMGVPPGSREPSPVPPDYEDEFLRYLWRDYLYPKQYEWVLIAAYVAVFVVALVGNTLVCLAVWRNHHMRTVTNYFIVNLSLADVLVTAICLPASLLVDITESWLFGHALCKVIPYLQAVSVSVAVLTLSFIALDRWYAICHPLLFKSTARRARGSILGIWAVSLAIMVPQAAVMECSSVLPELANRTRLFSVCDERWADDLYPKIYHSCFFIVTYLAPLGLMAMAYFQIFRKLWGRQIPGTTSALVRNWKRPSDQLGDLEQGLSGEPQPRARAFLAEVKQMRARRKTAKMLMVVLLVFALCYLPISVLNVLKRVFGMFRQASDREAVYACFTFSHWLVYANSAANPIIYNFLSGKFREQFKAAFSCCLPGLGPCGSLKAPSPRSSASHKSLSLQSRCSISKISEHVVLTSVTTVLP
- assay.explanation: NanoBRET screen HiBiT-HCRTR1 in HEK293
- Type: binding
- run.parameters: HCRTR1; tracer 0.1μM
- Procedure: Each tracer candidate was screened across the entire library of HiBiT-GPCR constructs using NanoBRET as the detection modality. As depicted in Figure 4A, the specificity of interactions was evaluated through decrease in BRET due to competitive displacement of a bound tracer by excess parental compound. Each tracer was analyzed for binding to each HiBiT-GPCR fusion in the absence and in the presence of competing parental compound. […]
Some compounds, each annotated with its measured NanoBRET Fold Response.

compound	NanoBRET Fold Response
Cc1nc2n(c(=O)c1CCN1CCC(c3noc4cc(F)ccc34)CC1)CCCC2OC(=O)NCCOCCOCCOCCOCCNC(=O)CCc1ccc2n1[B-](F)(F)[N+]1=C(c3ccc[nH]3)C=CC1=C2 (stereo not shown)	1.01

Data request: Query (compound): CC(C)N(CC[C@H](c1ccccc1)c1cc(CCNC(=O)c2ccc(CNC(=O)CCc3ccc4n3[B-](F)(F)[N+]3=C(c5ccc[nH]5)C=CC3=C4)cc2)ccc1O)C(C)C ; field requested: NanoBRET Fold Response
Data returned: 0.86

Data request: Can you look up the measured NanoBRET Fold Response of O=C(CCc1ccc2n1[B-](F)(F)[N+]1=C(c3ccc[nH]3)C=CC1=C2)NCCOCCOCCNC(=O)OCCOCCN1CCN(C2=Nc3ccccc3Sc3ccccc32)CC1 for me?
Data returned: 0.98

Data request: Look up NanoBRET Fold Response for this compound: COc1ccccc1N1CCN(CCCCN2C(=O)c3ccc(CNC(=O)CCOCCNC(=O)c4ccc(CNC(=O)CCc5ccc6n5[B-](F)(F)[N+]5=C(c7ccc[nH]7)C=CC5=C6)cc4)cc3C2=O)CC1
Data returned: 0.98

Data request: Item Cc1cc2c(s1)Nc1ccccc1N=C2N1CCN(CCCNC(=O)CCOCCOCCOCCOCCNC(=O)CCc2ccc3n2[B-](F)(F)[N+]2=C(c4ccc[nH]4)C=CC2=C3)CC1 has what recorded NanoBRET Fold Response?
Data returned: 0.98

Data request: // query NanoBRET Fold Response value for entry N#CN=C(NCCCOc1cccc(CN2CCCCC2)c1)NCCNC(=O)CCOCCOCCOCCOCCNC(=O)CCc1ccc2n1[B-](F)(F)[N+]1=C(c3ccc[nH]3)C=CC1=C2
Data returned: 0.98

Data request: I am curious: what NanoBRET Fold Response value has been reported for CC(C)N(CC[C@H](c1ccccc1)c1cc(CCNC(=O)CCOCCOCCOCCOCCNC(=O)CCc2ccc3n2[B-](F)(F)[N+]2=C(c4ccc[nH]4)C=CC2=C3)ccc1O)C(C)C ?
Data returned: 1.04

Data request: If you can, please state the reported NanoBRET Fold Response value of O=C(CCOCCOCCOCCOCCNC(=O)CCc1ccc2n1[B-](F)(F)[N+]1=C(c3ccc[nH]3)C=CC1=C2)NCCCN1CCN(C2=Nc3ccccc3Oc3ccc(Cl)cc32)CC1 .
Data returned: 0.93

Data request: Fill in the blank: the reported NanoBRET Fold Response of O=C(CCc1ccc2n1[B-](F)(F)[N+]1=C(c3ccc[nH]3)C=CC1=C2)NCc1ccc(C(=O)NCCOCCC(=O)N[C@@H]2CC[C@@]3(O)[C@H]4Cc5ccc(O)c6c5[C@@]3(CCN4CC3CC3)[C@H]2O6)cc1 [Naltrexone-3-NB590] is ____.
Data returned: 0.98

Data request: Entry under review: CCCn1c(=O)c2[nH]c(-c3ccc(OCC(=O)NCCNC(=O)CCOCCNC(=O)c4ccc(CNC(=O)CCc5ccc6n5[B-](F)(F)[N+]5=C(c7ccc[nH]7)C=CC5=C6)cc4)cc3)nc2n(CCC)c1=O . Reported NanoBRET Fold Response?
Data returned: 0.91

The measurements presented in this section are drawn from paper PMC8151276.
